system: Candida albicans; test: Test 1: Action against Candida albicans (in vitro), suppression of mycelial type growth; format: cell-based, Candida albicans ATCC 44859; details: ATCC44859, C. albicans ATCC 44859, 10% fetal-bovine-serum added MEM, 37° C., 24 hours, CO2 incubator, read-out: Terminal point (minimum medicament concentration permitting the apparent suppression of mycerial type growth)
readout-name: minimal effective concentration (µg/mL)
Number in µg/mL, nothing else.

Solved entries:
{"columns": ["compound", "result-unit", "measurement"],
 "data": [
  ["OC(Cn1cncn1)(Cn1cncn1)c1ccc(F)cc1F [Fluconazole, reference compound]", "µg/mL", 0.25],
  ["CCSC(F)(F)C(Cn1cncn1)(OC)c1ccc(F)cc1F (centres unmarked)", "µg/mL", 0.0313],
  ["CCS(=O)(=O)C(F)(F)C(O)(Cn1cncn1)c1ccc(Cl)cc1Cl (centres unmarked)", "µg/mL", 0.0156],
  ["CCSC(F)(F)C(O)(Cn1cncn1)c1ccc(F)cc1 (centres unmarked)", "µg/mL", 0.0313]
]}

The record that follows has no minimal effective concentration shown yet.
What reported minimal effective concentration corresponds to CCSC(F)(F)C(O)(Cn1cncn1)c1ccc(Cl)cc1Cl (centres unmarked) on Candida albicans? 0.0039
